target: alanyl aminopeptidases (APN) (Homo sapiens, UniProt P15144); assay: Inhibition of alanyl aminopeptidase enzymatic activity, fluorogenic substrate (Ala)2-rhodamine 110; format: biochemical; conditions: Table 3, unstarred values; read-out: IC50APN
Sequence (P15144 whole entry, species assumed): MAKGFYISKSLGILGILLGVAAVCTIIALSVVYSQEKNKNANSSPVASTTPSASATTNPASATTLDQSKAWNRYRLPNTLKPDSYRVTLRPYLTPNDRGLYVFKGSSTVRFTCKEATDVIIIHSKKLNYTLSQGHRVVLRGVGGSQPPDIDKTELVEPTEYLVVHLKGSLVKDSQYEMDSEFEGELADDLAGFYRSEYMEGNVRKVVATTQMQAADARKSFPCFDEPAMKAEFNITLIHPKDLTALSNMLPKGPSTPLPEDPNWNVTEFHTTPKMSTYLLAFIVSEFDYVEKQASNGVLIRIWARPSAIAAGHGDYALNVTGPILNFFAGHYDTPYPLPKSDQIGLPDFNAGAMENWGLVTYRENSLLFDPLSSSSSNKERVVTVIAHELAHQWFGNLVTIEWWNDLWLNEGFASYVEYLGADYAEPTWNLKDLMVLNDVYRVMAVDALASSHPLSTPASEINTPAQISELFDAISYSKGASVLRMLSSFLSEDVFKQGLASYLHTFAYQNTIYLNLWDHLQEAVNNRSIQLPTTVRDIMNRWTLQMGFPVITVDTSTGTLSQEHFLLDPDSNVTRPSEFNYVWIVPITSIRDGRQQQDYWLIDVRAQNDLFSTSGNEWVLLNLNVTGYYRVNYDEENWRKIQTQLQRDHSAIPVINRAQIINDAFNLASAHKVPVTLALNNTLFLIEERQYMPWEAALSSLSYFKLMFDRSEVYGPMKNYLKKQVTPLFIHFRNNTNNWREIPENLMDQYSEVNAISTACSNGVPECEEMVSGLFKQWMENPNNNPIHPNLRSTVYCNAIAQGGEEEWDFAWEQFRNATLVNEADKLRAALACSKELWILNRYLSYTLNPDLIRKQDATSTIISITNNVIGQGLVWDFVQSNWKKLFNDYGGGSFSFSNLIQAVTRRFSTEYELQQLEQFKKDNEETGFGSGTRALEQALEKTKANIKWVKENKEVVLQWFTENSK
This section presents compounds with their documented IC50 values.
// units = µM; emit number, no label

Consider the following illustrative entries.
{"compound": "NNC(=O)c1ccc(NS(=O)(=O)c2cccs2)cc1 [A3.047]", "endpoint_unit": "µM", "experimental_value": 11.8}
{"compound": "Cc1ccc(/C=C/C(=O)Nc2ccc(S(=O)(=O)N3CCCC3)cc2)o1 [A3.149]", "endpoint_unit": "µM", "experimental_value": 24.8}
{"compound": "C=CCOC(=O)c1cc(-c2ccc(/C=C3/C(=O)N(CCCO)C(=O)C(C#N)=C3C)o2)ccc1Cl [A3.087]", "endpoint_unit": "µM", "experimental_value": 18.1}
{"compound": "CCn1c(/C=C/c2ccco2)nc2ccccc21 [A3.250]", "endpoint_unit": "µM", "experimental_value": 46.6}
{"compound": "COC(=O)N/N=C(C)\\C=C\\c1ccco1 [A3.059]", "endpoint_unit": "µM", "experimental_value": 13.5}
{"compound": "COc1cc(/C=N/NC(=O)c2cc(-c3ccco3)n[nH]2)cc(OC)c1OC [A3.083]", "endpoint_unit": "µM", "experimental_value": 17}
{"compound": "O=C(C1c2ccccc2Oc2ccccc21)n1cc(Cl)cn1 [A3.179]", "endpoint_unit": "µM", "experimental_value": 29.1}
{"compound": "Cc1ccc(/C=N/NC(=O)COc2ccccc2C)o1 [A3.128]", "endpoint_unit": "µM", "experimental_value": 22.2}

Record summary for COc1ccc(C2NCCS2)cc1OC (stereo not shown) [A3.316] : reported IC50 = 92.1

Record summary for Oc1ccc(Cl)cc1/N=C/c1ccc(-c2ccc(F)cc2)o1 [A3.305] : reported IC50 = 77.3
